- Tested on: Amaranthus retoflexus (AMARE)
- protocol description: Pre-emergence herbicidal glasshouse test
- Assay type: in vivo
- measurement parameters: 250 g/ha, sprayed after one day cultivation, evaluated after 13 days
measurement label: percentage damage caused to the plant, AMARE

INSERT INTO measurements (molecule, data_value) VALUES
  ('FC(F)(F)CCCc1nc(C(F)(F)F)cn1Cc1ncc(Cl)cn1 [Compound 1.025]', '5 (5=81-100%)'),
  ('CC(F)(F)CCc1nc(C(F)(F)F)cn1Cc1ncc(Cl)cn1 [Compound 1.085]', '5 (5=81-100%)'),
  ('CCCCCc1nc(C(F)(F)F)cn1Cc1ncc(C)cn1 [Compound 1.016]', '5 (5=81-100%)');

The recorded percentage damage caused to the plant, AMARE for CCCCc1nc(C(F)(F)F)cn1Cc1ncc(Cl)cn1 [Compound 1.026] is 5 (5=81-100%)

The recorded percentage damage caused to the plant, AMARE for entry CSCCc1nc(C(F)(F)F)cn1Cc1ncc(Cl)cn1 [Compound 1.083] equals 4 (4=61-80%)

For this molecule ( CCCCc1nc(C(F)(F)F)cn1Cc1ccc(Cl)cn1 [Compound 1.081] ), measured percentage damage caused to the plant, AMARE is 2 (2=21-40%)

percentage damage caused to the plant, AMARE in this record for FC(F)(F)c1cn(Cc2ncc(Cl)cn2)c(CCCCl)n1 [Compound 1.051] : 5 (5=81-100%)

Input OCCCc1nc(C(F)(F)F)cn1Cc1ncc(Cl)cn1 [Compound 1.008] . Output percentage damage caused to the plant, AMARE: 1 (1=0-20%)

So for FC(F)(F)c1cn(Cc2ncc(Cl)cn2)c(CCn2ccc(C(F)(F)F)n2)n1 [Compound 1.033] , the logged percentage damage caused to the plant, AMARE turned out to be 5 (5=81-100%)

* * *

- Tested on: Amaranthus retoflexus (AMARE)
- protocol description: Post-emergence herbicidal glasshouse test
- Format: in vivo
- measurement parameters: 250 g/ha, sprayed after 8 days cultivation, evaluated after 13 days
measurement label: percentage damage caused to the plant, AMARE

INSERT INTO measurements (compound, data_value) VALUES
  ('FC(F)(F)CCCc1nc(C(F)(F)F)cn1Cc1ncc(Cl)cn1', '5 (5=81-100%)'),
  ('FC(F)(F)c1cn(Cc2ncc(Cl)cn2)c(CCn2ccc(C(F)(F)F)n2)n1', '4 (4=61-80%)'),
  ('N#CC1(c2nc(C(F)(F)F)cn2Cc2ncc(Cl)cc2F)CC1', '4 (4=61-80%)');

Please fill in: percentage damage caused to the plant, AMARE reported for CC(F)(F)CCc1nc(C(F)(F)F)cn1Cc1ncc(Cl)cn1 = 5 (5=81-100%)

Consider CON=CCCc1nc(C(F)(F)F)cn1Cc1ncc(Cl)cn1 (single isomer, unassigned) . Its measured percentage damage caused to the plant, AMARE is 4 (4=61-80%)

// percentage damage caused to the plant, AMARE lookup, compound = OCCCc1nc(C(F)(F)F)cn1Cc1ncc(Cl)cn1 , result: 1 (1=0-20%)

# percentage damage caused to the plant, AMARE of FC(F)(F)CCCc1nc(Br)cn1Cc1ncc(Cl)cn1 = 2 (2=21-40%)

CCCCc1nc(C(F)F)cn1Cc1ncc(Cl)cn1 yielded percentage damage caused to the plant, AMARE of 1 (1=0-20%)

Value of measured percentage damage caused to the plant, AMARE for the entry CCCCc1nc(C(F)(F)F)cn1Cc1ncc(Cl)cn1 : 5 (5=81-100%)

Entry FC(F)c1cn(Cc2ncc(Cl)cn2)c(SCCC(F)(F)F)n1 , percentage damage caused to the plant, AMARE reported as 1 (1=0-20%)

The measured percentage damage caused to the plant, AMARE associated with CS(=O)(=O)CCc1nc(C(F)(F)F)cn1Cc1ncc(Cl)cn1 reads 4 (4=61-80%)

Kindly note the recorded percentage damage caused to the plant, AMARE for CSCCc1nc(C(F)(F)F)cn1Cc1ncc(Cl)cn1 , which is 4 (4=61-80%)

Summary for this compound, CCCCCc1nc(C(F)(F)F)cn1Cc1ncc(C)cn1 : percentage damage caused to the plant, AMARE is 2 (2=21-40%)

The compound CCCCc1nc(C(F)(F)F)cn1Cc1ccc(C#N)cn1 showed percentage damage caused to the plant, AMARE equal to 2 (2=21-40%)

Just so you know, measured percentage damage caused to the plant, AMARE for OCC(O)CCc1nc(C(F)(F)F)cn1Cc1ncc(Cl)cn1 (centres unmarked) came out at 2 (2=21-40%)

The reported percentage damage caused to the plant, AMARE of the compound FC(F)COCCc1nc(C(F)(F)F)cn1Cc1ncc(Cl)cn1 was 4 (4=61-80%)

Sure, the documented percentage damage caused to the plant, AMARE for FC(F)(F)CCc1nc(C(F)(F)F)cn1Cc1ncc(Cl)cn1 is 5 (5=81-100%)

For record C#Cc1nc(C(F)(F)F)cn1Cc1ncc(Cl)cn1 the listed percentage damage caused to the plant, AMARE is 2 (2=21-40%)

Input CC(C)(C#N)CCc1nc(C(F)(F)F)cn1Cc1ncc(Cl)cn1 . Output percentage damage caused to the plant, AMARE: 2 (2=21-40%)

For FC(F)(F)c1cn(Cc2ncc(Cl)cn2)c(CCCCl)n1 the compound record lists percentage damage caused to the plant, AMARE as 5 (5=81-100%)
